compounds and their reported pEC50 M3
target: human muscarinic M3 receptor (Homo sapiens); construct: expressed in transfected cells; experiment: Alphascreen Surefire phospho-ERK1/2 functional assay, M3; assay type: cell-based; settings: CHO cells stably expressing human M3; agonist 5 min, 37° C.
Sequence (P20309 whole entry): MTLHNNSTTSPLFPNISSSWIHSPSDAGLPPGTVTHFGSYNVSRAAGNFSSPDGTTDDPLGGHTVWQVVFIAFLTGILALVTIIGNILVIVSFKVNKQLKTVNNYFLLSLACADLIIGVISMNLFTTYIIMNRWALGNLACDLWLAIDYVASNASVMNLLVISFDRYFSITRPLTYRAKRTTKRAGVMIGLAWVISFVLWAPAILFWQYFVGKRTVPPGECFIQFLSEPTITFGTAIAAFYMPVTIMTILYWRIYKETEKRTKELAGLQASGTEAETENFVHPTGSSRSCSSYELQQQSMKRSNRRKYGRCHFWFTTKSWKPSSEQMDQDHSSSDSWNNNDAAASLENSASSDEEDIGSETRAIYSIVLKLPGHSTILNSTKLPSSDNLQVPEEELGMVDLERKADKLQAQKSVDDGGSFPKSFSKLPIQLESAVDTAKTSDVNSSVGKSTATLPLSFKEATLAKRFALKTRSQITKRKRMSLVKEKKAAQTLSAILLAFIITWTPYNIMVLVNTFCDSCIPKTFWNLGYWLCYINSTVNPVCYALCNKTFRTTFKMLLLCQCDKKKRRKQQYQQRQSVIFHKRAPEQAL

Some solved entries appear below for comparison.
(Q) Could you share which pEC50 M3 value was measured for CCOC(=O)N1CCC2(CC(N3CCC(C(CC)=NOC)CC3)C2)C1 (single isomer, unassigned) [2-2 Isomer 4] ?
(A) < 4.7

(Q) Another: CCOC(=O)N1CCCC(N2CCC(C(=NOC)C(C)C)CC2)CC1 (single isomer, unassigned) [1-5 Isomer 2 (racemic)]
(A) < 4.7

(Q) Another: CCOC(=O)N1CCC[C@H](N2CCC(C(CC)=NOC)CC2)CC1 (single isomer, unassigned) [(S)-1-2 Isomer 2]
(A) < 4.7

(Q) Another: CCOC(=O)N1CCCC(N2CCC(C(CC)=NOC(C)C)CC2)CC1 (single isomer, unassigned) [1-12 Isomer 2 (racemic)]
(A) < 4.7

Next:
(Q) Could you share which pEC50 M3 value was measured for CCOC(=O)N1CCCC(N2CCC(C(CC)=NOC)CC2)CC1 (single isomer, unassigned) [1-2 Isomer 2 (racemic)] ?
(A) < 4.7

====

Target: human muscarinic M4 receptor (Homo sapiens)
Construct: expressed in transfected cells
Sequence (P08173 1-479): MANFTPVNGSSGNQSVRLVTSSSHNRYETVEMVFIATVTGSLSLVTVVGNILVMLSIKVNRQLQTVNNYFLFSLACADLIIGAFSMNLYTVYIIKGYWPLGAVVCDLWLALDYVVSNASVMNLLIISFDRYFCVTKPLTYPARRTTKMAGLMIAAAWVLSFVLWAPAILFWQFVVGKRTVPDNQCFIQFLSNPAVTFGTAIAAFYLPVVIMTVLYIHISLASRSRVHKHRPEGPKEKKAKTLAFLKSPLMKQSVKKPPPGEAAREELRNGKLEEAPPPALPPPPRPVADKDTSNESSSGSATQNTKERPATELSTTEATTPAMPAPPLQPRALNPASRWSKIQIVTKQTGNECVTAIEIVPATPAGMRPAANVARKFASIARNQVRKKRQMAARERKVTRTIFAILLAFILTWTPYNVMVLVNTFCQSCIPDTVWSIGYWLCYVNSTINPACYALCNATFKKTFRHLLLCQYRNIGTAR
Test: Alphascreen Surefire phospho-ERK1/2 functional assay, M4
Assay type: cell-based
Details: CHO, read-out: % Emax cf. ACh, M4, CHO cells stably expressing human M4; Emax compared with ACh
result-type: Emax (%)

(Q) Could you share which Emax value was measured for CCOC(=O)N1CCCC(N2CCC(C(CC)=NOC)CC2)CC1 (single isomer, unassigned) [1-2 Isomer 1 (racemic)] ?
(A) 99

(Q) Another: CCCON=C(C)C1CCN(C2CCCN(C(=O)OCC)CC2)CC1 (single isomer, unassigned) [1-8 Isomer 1 (racemic)]
(A) 46

(Q) Another: CCOC(=O)N1CCC[C@H](N2CCC(C(CC)=NOC)CC2)CC1 (single isomer, unassigned) [(S)-1-2 Isomer 1]
(A) 81

(Q) Another: CCOC(=O)N1CCCC(N2CCC(C(CCC(C)C)=NOC)CC2)CC1 (single isomer, unassigned) [1-6 Isomer 2 (racemic)]
(A) 65

A: CCCC(=NOC)C1CCN(C2CCCN(C(=O)OCC)CC2)CC1 (single isomer, unassigned) [1-3 Isomer 1 (racemic)]
B: CCOC(=O)N1CCCC(N2CCC(C(=NOC)NCC(C)C)CC2)CC1 (racemic) [3-1 Mixture of isomers]
C: CCCC(=NOC)C1CCN([C@H]2CCCN(C(=O)OCC)CC2)CC1 (single isomer, unassigned) [(S)-1-3 Isomer 2]
(Q) Kindly order the items shown according to Emax, from the highest value down. Response field: labels, in requested order.
(A) C, A, B

Where do these numbers come from? They come from patent US11208396B2.
